# System name: telomerase (Homo sapiens)
# Construct: endogenous in cells; host or cells: PC3 (human prostate cancer, ATCC)
# Sequence (O14746 whole entry): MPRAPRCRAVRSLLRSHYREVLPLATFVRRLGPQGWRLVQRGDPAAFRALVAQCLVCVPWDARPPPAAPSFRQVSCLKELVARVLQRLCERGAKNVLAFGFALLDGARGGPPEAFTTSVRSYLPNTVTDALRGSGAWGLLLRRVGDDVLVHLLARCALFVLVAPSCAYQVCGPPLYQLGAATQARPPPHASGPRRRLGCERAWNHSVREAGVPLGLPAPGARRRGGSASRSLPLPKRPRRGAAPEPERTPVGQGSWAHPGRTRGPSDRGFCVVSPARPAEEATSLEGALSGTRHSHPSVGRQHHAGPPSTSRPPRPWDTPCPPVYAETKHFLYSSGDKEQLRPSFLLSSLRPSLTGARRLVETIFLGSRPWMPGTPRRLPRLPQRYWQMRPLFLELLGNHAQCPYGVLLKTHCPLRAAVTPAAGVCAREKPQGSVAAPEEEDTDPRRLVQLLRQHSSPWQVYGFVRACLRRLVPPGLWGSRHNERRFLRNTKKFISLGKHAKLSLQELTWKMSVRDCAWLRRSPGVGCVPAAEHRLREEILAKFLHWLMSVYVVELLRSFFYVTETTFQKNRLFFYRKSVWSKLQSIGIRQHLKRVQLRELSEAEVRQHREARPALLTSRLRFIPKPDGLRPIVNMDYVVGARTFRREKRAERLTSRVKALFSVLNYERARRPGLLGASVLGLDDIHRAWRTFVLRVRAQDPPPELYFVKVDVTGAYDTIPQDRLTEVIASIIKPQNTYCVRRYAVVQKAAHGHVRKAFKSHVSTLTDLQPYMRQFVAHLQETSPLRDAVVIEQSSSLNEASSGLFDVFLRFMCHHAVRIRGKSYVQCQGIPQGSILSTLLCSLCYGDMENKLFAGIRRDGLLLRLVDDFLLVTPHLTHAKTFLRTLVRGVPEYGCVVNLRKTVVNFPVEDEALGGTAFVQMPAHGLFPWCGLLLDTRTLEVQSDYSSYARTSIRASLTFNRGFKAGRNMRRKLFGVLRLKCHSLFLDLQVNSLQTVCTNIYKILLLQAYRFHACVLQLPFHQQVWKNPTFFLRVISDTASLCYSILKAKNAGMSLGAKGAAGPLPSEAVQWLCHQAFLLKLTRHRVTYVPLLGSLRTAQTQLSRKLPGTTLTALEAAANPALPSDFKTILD
# Protocol description: Telomerase activity in PC3 cell lysates (TRAP / RTQ-TRAP, cell-free)
# Assay type: biochemical
# Condition: RTQ-TRAP, PC3 cell lysates; mean from four assays, errors ±5%; read-out: IC50 telomerase inhibition
Endpoint: IC50 (µM)
Give the quantity in µM, number only.

Answered examples (2):
>>> result_value("Cc1cn([C@H]2C[C@H](n3cc(CNC(=O)c4ccc(S(N)(=O)=O)cc4)nn3)[C@@H](CO)O2)c(=O)[nH]c1=O")
9.1
>>> result_value("Cc1cn([C@H]2C[C@H](n3cc(COC(=O)c4ccc(S(N)(=O)=O)cc4)nn3)[C@@H](CO)O2)c(=O)[nH]c1=O")
6

Next, consider the following molecule.
Q: Look at this molecule and give its reported IC50. `Cc1cn([C@H]2C[C@H](n3cc(COc4ccc(S(N)(=O)=O)cc4)nn3)[C@@H](CO)O2)c(=O)[nH]c1=O`
Result: 5.2

----------
# System name: hCA VA (Homo sapiens, UniProt P35218)
# Sequence (P35218 39-305): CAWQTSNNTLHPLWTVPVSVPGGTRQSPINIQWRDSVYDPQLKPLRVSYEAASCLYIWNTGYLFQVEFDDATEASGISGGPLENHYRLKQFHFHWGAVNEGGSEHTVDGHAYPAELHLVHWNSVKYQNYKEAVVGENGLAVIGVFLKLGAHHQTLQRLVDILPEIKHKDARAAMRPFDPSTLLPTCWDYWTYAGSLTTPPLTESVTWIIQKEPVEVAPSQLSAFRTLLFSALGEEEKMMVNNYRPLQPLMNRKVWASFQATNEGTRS
pKi: −log10 of the molar value.
Label scheme for pKi: lower than 7 is Not met, 7 and above is Met.

>>> qualitative_label("Cc1cn([C@H]2C[C@H](n3cc(COc4ccc5c(c4)C=CS(=O)(=O)O5)nn3)[C@@H](CO)O2)c(=O)[nH]c1=O [Compound 20b]")
"Not met"

Q: Hello, I need to know if Cc1cn([C@H]2C[C@H](n3cc(COc4ccc5oc(=O)ccc5c4)nn3)[C@@H](CO)O2)c(=O)[nH]c1=O [Compound 15b] has measured pKi not below 7. Thanks!
Result: Met

Q: Hello, I need to know if `Cc1cn([C@H]2C[C@H](n3cc(COC(=O)c4ccc(S(N)(=O)=O)cc4)nn3)[C@@H](CO)O2)c(=O)[nH]c1=O` has measured pKi not below 7. Thanks!
Result: Not met

Q: Hello, I need to know if `Cc1cn([C@H]2C[C@H](n3cc(CNC(=O)Nc4cccc(S(N)(=O)=O)c4)nn3)[C@@H](CO)O2)c(=O)[nH]c1=O` has measured pKi not below 7. Thanks!
Result: Not met

Q: Hello, I need to know if `Cc1cn([C@H]2C[C@H](n3cc(CNC(=O)c4ccc(S(N)(=O)=O)cc4)nn3)[C@@H](CO)O2)c(=O)[nH]c1=O` has measured pKi not below 7. Thanks!
Result: Not met

Q: Hello, I need to know if `Cc1cn([C@H]2C[C@H](n3cc(COc4ccc(S(N)(=O)=O)cc4)nn3)[C@@H](CO)O2)c(=O)[nH]c1=O` has measured pKi not below 7. Thanks!
Result: Met

Q: Hello, I need to know if Cc1cn([C@H]2C[C@H](n3cc(C[Se]c4ccc(NC(=S)Nc5cccc(S(N)(=O)=O)c5)cc4)nn3)[C@@H](CO)O2)c(=O)[nH]c1=O [Compound 11b] has measured pKi not below 7. Thanks!
Result: Not met

----------
pKi: −log10 of the molar value.
Observed pKi for hCA I (Homo sapiens), reported per entry below.

Answered examples (3):
>>> result_value("Cc1cn([C@H]2C[C@H](n3cc(COc4ccc(S(N)(=O)=O)cc4)nn3)[C@@H](CO)O2)c(=O)[nH]c1=O [Compound 1b]")
5.33
>>> result_value("Cc1cn([C@H]2C[C@H](n3cc(CCCCOc4ccc5ccc(=O)oc5c4)nn3)[C@@H](CO)O2)c(=O)[nH]c1=O [Compound 19b]")
"< 5.00"
>>> result_value("Cc1cn([C@H]2C[C@H](n3cc(COc4ccc5oc(=O)ccc5c4)nn3)[C@@H](CO)O2)c(=O)[nH]c1=O [Compound 15b]")
"< 5.00"

Q: # returns recorded pKi (system: hCA I (Homo sapiens)) for Cc1cn([C@H]2C[C@H](n3cc(COc4ccc5ccc(=O)oc5c4)nn3)[C@@H](CO)O2)c(=O)[nH]c1=O [Compound 17b]
Sequence (P00915 whole entry): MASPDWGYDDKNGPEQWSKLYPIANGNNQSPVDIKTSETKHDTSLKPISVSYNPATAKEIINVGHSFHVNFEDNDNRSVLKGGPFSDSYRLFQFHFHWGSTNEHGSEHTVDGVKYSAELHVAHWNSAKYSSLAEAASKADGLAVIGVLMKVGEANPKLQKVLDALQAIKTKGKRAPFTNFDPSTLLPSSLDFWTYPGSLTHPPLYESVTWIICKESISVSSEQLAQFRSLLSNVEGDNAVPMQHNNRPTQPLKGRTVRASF
Result: < 5.00
